- System: antibodies in sera from SARS patients (sera 1a, 1b, 2, 6, 37, 62, London, SARS-yellow, SARS-green)
- Assay type: binding, human
- Design: unit not given here
RESULT_TYPE: Binding of serum 37 to linear peptides of protein X1 of SARS-CoV Urbani
Please state the value as a number alone, without comment.

Task: Can you look up the measured Binding of serum 37 to linear peptides of protein X1 of SARS-CoV Urbani of `CIPYNSVTDTIVVTE` for me?
Output: 0.7

Task: Can you look up the measured Binding of serum 37 to linear peptides of protein X1 of SARS-CoV Urbani of `PPNVQIHTIDGSSGV` for me?
Output: 0.7

Task: Can you look up the measured Binding of serum 37 to linear peptides of protein X1 of SARS-CoV Urbani of `SLPFGWLVIGVAFLA` for me?
Output: 0.6

Task: Can you look up the measured Binding of serum 37 to linear peptides of protein X1 of SARS-CoV Urbani of `QLESTQITTDTGIEN` for me?
Output: 0.5

Task: Can you look up the measured Binding of serum 37 to linear peptides of protein X1 of SARS-CoV Urbani of `SATKIIALNKRWQLA` for me?
Output: 0.7

Let us examine a further case.
Task: Can you look up the measured Binding of serum 37 to linear peptides of protein X1 of SARS-CoV Urbani of `AFLAVFQSATKIIAL` for me?
Output: 0.6

* * *

- System: control sera (pooled serum of ten healthy LUMC hospital workers; commercial negative donor pooled serum from the Dutch bloodbank)
- Type: binding, human
- Design: unit not given here
RESULT_TYPE: Binding of Control serum LUMC to linear peptides
Please state the value as a number alone, without comment.

Reference set, count: 5
Task: Can you look up the measured Binding of Control serum LUMC to linear peptides of `ILVRYNTRGNTYSTA` for me?
Output: 0.5

Task: Can you look up the measured Binding of Control serum LUMC to linear peptides of `LPYGANKEGIVWVAT` for me?
Output: 0.6

Task: Can you look up the measured Binding of Control serum LUMC to linear peptides of `ALVFLILCFTIKRKT` for me?
Output: 0.6

Task: Can you look up the measured Binding of Control serum LUMC to linear peptides of `QCINACRIIMRCWLC` for me?
Output: 0.7

Task: Can you look up the measured Binding of Control serum LUMC to linear peptides of `ASLPFGWLVIGVAFL` for me?
Output: 0.6

Further cases:
Task: Can you look up the measured Binding of Control serum LUMC to linear peptides of `GTGPEASLPYGANKE` for me?
Output: 0.8

* * *

Quick list: Binding of serum 6 to looped/cyclic peptides of protein N of SARS-CoV Urbani per entry.
- Test system: antibodies in sera from SARS patients (sera 1a, 1b, 2, 6, 37, 62, London, SARS-yellow, SARS-green)
- Type: binding, human
- Set-up: unit not given here
Please state the value as a number alone, without comment.

Task: Can you look up the measured Binding of serum 6 to looped/cyclic peptides of protein N of SARS-CoV Urbani of `GPDDQIGYYRRATRR` for me?
Output: 0.4

Further cases:
Task: Can you look up the measured Binding of serum 6 to looped/cyclic peptides of protein N of SARS-CoV Urbani of `KKQPTVTLLPAADMD` for me?
Output: 0.1

Task: Can you look up the measured Binding of serum 6 to looped/cyclic peptides of protein N of SARS-CoV Urbani of `QQQGQTVTKKSAAEA` for me?
Output: 0.5

Task: Can you look up the measured Binding of serum 6 to looped/cyclic peptides of protein N of SARS-CoV Urbani of `GMEVTPSGTWLTYHG` for me?
Output: 0.3

Task: Can you look up the measured Binding of serum 6 to looped/cyclic peptides of protein N of SARS-CoV Urbani of `RITFGGPTDSTDNNQ` for me?
Output: 0.2

Task: Can you look up the measured Binding of serum 6 to looped/cyclic peptides of protein N of SARS-CoV Urbani of `ALLLLDRLNQLESKV` for me?
Output: 0.3

Task: Can you look up the measured Binding of serum 6 to looped/cyclic peptides of protein N of SARS-CoV Urbani of `ALNTPKDHIGTRNPN` for me?
Output: 0.3

Task: Can you look up the measured Binding of serum 6 to looped/cyclic peptides of protein N of SARS-CoV Urbani of `RVRGGDGKMKELSPR` for me?
Output: 0.4

Task: Can you look up the measured Binding of serum 6 to looped/cyclic peptides of protein N of SARS-CoV Urbani of `YAEGSRGGSQASSRS` for me?
Output: 0.2

* * *

- Tested on: antibodies in sera from SARS patients (sera 1a, 1b, 2, 6, 37, 62, London, SARS-yellow, SARS-green)
- Type: binding, human
- Design: unit not given here
RESULT_TYPE: Binding of serum 6 to linear peptides of protein M of SARS-CoV Urbani

Reference set, count: 7
Task: Can you look up the measured Binding of serum 6 to linear peptides of protein M of SARS-CoV Urbani of `ASFRLFARTRSMWSF` for me?
Output: 0.7

Task: Can you look up the measured Binding of serum 6 to linear peptides of protein M of SARS-CoV Urbani of `DIKDLPKEITVATSR` for me?
Output: 0.5

Task: Can you look up the measured Binding of serum 6 to linear peptides of protein M of SARS-CoV Urbani of `GTDSGFAAYNRYRIG` for me?
Output: 0.7

Task: Can you look up the measured Binding of serum 6 to linear peptides of protein M of SARS-CoV Urbani of `NRYRIGNYKLNTDHA` for me?
Output: 0.3

Task: Can you look up the measured Binding of serum 6 to linear peptides of protein M of SARS-CoV Urbani of `LYIIKLVFLWLLWPV` for me?
Output: 0.4

Task: Can you look up the measured Binding of serum 6 to linear peptides of protein M of SARS-CoV Urbani of `AMACIVGLMWLSYFV` for me?
Output: 0.4

Task: Can you look up the measured Binding of serum 6 to linear peptides of protein M of SARS-CoV Urbani of `TIVTRPLMESELVIG` for me?
Output: 0.4

Let us examine a further case.
Task: Can you look up the measured Binding of serum 6 to linear peptides of protein M of SARS-CoV Urbani of `LACFVLAAVYRINWV` for me?
Output: 0.4

* * *

- Tested on: antibodies in sera from SARS patients (sera 1a, 1b, 2, 6, 37, 62, London, SARS-yellow, SARS-green)
- Assay type: binding, human
Quick list: Binding of serum 1b to looped/cyclic peptides of protein M of SARS-CoV Urbani per entry.
Please state the value as a number alone, without comment.

Reference set, count: 2
Task: Can you look up the measured Binding of serum 1b to looped/cyclic peptides of protein M of SARS-CoV Urbani of `DLPKEITVATSRTLS` for me?
Output: 0.5

Task: Can you look up the measured Binding of serum 1b to looped/cyclic peptides of protein M of SARS-CoV Urbani of `DIKDLPKEITVATSR` for me?
Output: 0.6

Further cases:
Task: Can you look up the measured Binding of serum 1b to looped/cyclic peptides of protein M of SARS-CoV Urbani of `YNRYRIGNYKLNTDH` for me?
Output: 0.7

Task: Can you look up the measured Binding of serum 1b to looped/cyclic peptides of protein M of SARS-CoV Urbani of `SQRVGTDSGFAAYNR` for me?
Output: 0.4

Task: Can you look up the measured Binding of serum 1b to looped/cyclic peptides of protein M of SARS-CoV Urbani of `AAYNRYRIGNYKLNT` for me?
Output: 0.5

Task: Can you look up the measured Binding of serum 1b to looped/cyclic peptides of protein M of SARS-CoV Urbani of `IIKLVFLWLLWPVTL` for me?
Output: 0.7

Task: Can you look up the measured Binding of serum 1b to looped/cyclic peptides of protein M of SARS-CoV Urbani of `EQWNLVIGFLFLAWI` for me?
Output: 0.6

* * *

- Test system: antibodies in sera from SARS patients (sera 1a, 1b, 2, 6, 37, 62, London, SARS-yellow, SARS-green)
- Assay type: binding, human
- Set-up: unit not given here
RESULT_TYPE: Binding of serum 37 to looped/cyclic peptides of protein M of SARS-CoV Urbani

Reference set, count: 5
Task: Can you look up the measured Binding of serum 37 to looped/cyclic peptides of protein M of SARS-CoV Urbani of `LVIGFLFLAWIMLLQ` for me?
Output: 0.7

Task: Can you look up the measured Binding of serum 37 to looped/cyclic peptides of protein M of SARS-CoV Urbani of `DLPKEITVATSRTLS` for me?
Output: 0.7

Task: Can you look up the measured Binding of serum 37 to looped/cyclic peptides of protein M of SARS-CoV Urbani of `TVATSRTLSYYKLGA` for me?
Output: 0.5

Task: Can you look up the measured Binding of serum 37 to looped/cyclic peptides of protein M of SARS-CoV Urbani of `LLWPVTLACFVLAAV` for me?
Output: 0.8

Task: Can you look up the measured Binding of serum 37 to looped/cyclic peptides of protein M of SARS-CoV Urbani of `LKQLLEQWNLVIGFL` for me?
Output: 0.5

Let us examine a further case.
Task: Can you look up the measured Binding of serum 37 to looped/cyclic peptides of protein M of SARS-CoV Urbani of `GTDSGFAAYNRYRIG` for me?
Output: 0.7
